test: Stability in human plasma assessed as half life; assay type: ADME, cell-free
recorded-endpoint: half-life

* H-GRYRSPYDRRRRYRRITD-NH2 | < 30 min
